The origin of these recorded values is ChEMBL document CHEMBL1128593.

Tested on: Proteus vulgaris
Assay: Antimicrobial activity of the Compound was tested for minimum inhibitory concentration against Proteus vulgaris 1420
Format: functional
Measured Endpoint: MIC (µg/mL)

Worked examples, 3 compounds total:
{"Compound": "C#CC#CC#CC#C/C=C/C=C/[C@H](C)O", "MIC (µg/mL)": 1.5}
{"Compound": "C#CC#CC#C/C=C/C=C/C(C)O (stereo unspecified)", "MIC (µg/mL)": 12.5}
{"Compound": "C#CC#CC#CC#C/C=C/C=C/C(C)O (racemic)", "MIC (µg/mL)": 0.8}

A = C#CC#CC#CC#C/C=C/C=C/[C@@H](C)O
B = C#CC#CC#CC#CC1(O)CCCCC1
Q: Which entry shows the lesser value of MIC here, A or B ? Please identify the chosen entry by its label.
A: A
(A: 0.8 µg/mL, B: 3.1 µg/mL)
